Molecular target: human pancreatic lipase (hPL) (Homo sapiens, UniProt P16233)
Sequence (P16233 17-465): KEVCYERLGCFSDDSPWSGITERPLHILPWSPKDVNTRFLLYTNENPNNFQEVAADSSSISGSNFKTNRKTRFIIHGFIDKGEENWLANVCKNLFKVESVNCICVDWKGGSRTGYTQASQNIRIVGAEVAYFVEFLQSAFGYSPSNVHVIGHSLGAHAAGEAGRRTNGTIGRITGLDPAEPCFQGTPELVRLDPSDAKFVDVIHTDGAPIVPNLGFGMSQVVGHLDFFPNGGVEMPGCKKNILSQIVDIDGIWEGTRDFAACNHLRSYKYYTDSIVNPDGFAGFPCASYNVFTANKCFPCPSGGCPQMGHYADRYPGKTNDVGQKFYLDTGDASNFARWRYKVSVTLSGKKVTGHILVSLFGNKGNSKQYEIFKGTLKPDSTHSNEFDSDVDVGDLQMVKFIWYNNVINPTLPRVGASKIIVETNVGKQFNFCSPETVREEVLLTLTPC
Readout Kind: pKi
pKi is a log-scale quantity: -log10 of the concentration expressed in molar.

Name the reported pKi value associated with the compound O=c1c(O)c(-c2cc(O)c(O)c(O)c2)oc2cc(O)cc(O)c12
5.69

###

Reported local exposure in the gastrointestinal tract is given for each of the following compounds.
Assay: Estimated local exposure in the gastrointestinal tract (daily dose divided by volume of the human gastrointestinal system)
Conditions: oral AGE at daily dosage recommended by Chinese Materia Medica
Your answer is read as µM, so omit the unit and give the number.

Examples from the recorded data:
Compound: O=C1c2c(O)cc(O)cc2OC(c2ccc(O)c(O)c2)C1O (stereo not shown) [Taxifolin]
Units Of Measure: µM
Result Value: 11.85

Compound: O=C1c2c(O)cc(O)cc2O[C@H](c2cc(O)c(O)c(O)c2)[C@H]1O [Dihydromyricetin]
Units Of Measure: µM
Result Value: 206.08

Compound: O=c1c(O)c(-c2cc(O)c(O)c(O)c2)oc2cc(O)cc(O)c12 [Myricetin]
Units Of Measure: µM
Result Value: 19.37

# evaluate next
Name the reported local exposure in the gastrointestinal tract value associated with the compound O=C1c2c(O)cc(O)cc2O[C@H](c2cc(O)c(O)c(O)c2)[C@@H]1O [Iso-dihydromyricetin]
106.90

Data origin: paper PMC8914261
